# Test protocol: Cytotoxicity against African green monkey Vero cells assessed as inhibition of cell growth by visual analysis
# Type: toxicity, cell-based, Chlorocebus sabaeus
// returns F unless IC50 is strictly below 40 µg/mL, in which case T

# example entries with known answers
## Input A record lists "Cc1ccc(Cc2nnc(Nc3cccc(C)c3)[nH]c2=O)cc1" . Is its IC50 below 40 µg/mL?
## Output F

## Input A record lists "Cc1ccc(Cc2nnc(Nc3ccccc3F)[nH]c2=O)cc1" . Is its IC50 below 40 µg/mL?
## Output F

## Input A record lists "Cc1ccc(Cc2nnc(Nc3ccccc3)[nH]c2=O)cc1" . Is its IC50 below 40 µg/mL?
## Output T

## Input A record lists "COc1ccccc1Nc1nnc(Cc2ccc(C)cc2)c(=O)[nH]1" . Is its IC50 below 40 µg/mL?
## Output T

## Input A record lists "COc1ccc(Nc2nnc(Cc3ccc(C)cc3)c(=O)[nH]2)c(OC)c1" . Is its IC50 below 40 µg/mL?
## Output F

## Input A record lists "Cc1ccc(Cc2nnc(Nc3cccc(F)c3)[nH]c2=O)cc1" . Is its IC50 below 40 µg/mL?
## Output F

Now let's try a different one.
## Input A record lists "Cc1ccc(Cc2nnc(Nc3ccc(F)cc3)[nH]c2=O)cc1" . Is its IC50 below 40 µg/mL?
## Output F

====

# Tested on: Yellow fever virus
# Test protocol: Antiviral activity against Yellow fever virus 17D infected in African green monkey Vero assessed as reduction in cytopathic effect preincubated with compound for 5 mins followed by viral infection and measured at 72 to 120 hrs by neutral red uptake assay
# Assay type: functional, organism-based
// returns False unless EC50 is strictly below 6 µg/mL, in which case True

## Input A record lists "Cc1ccc(Cc2nnc(Nc3cc(C)ccc3C)[nH]c2=O)cc1" . Is its EC50 below 6 µg/mL?
## Output False

New cases:
## Input A record lists "CCOC(=O)c1ccc(Nc2nnc(Cc3ccc(C)cc3)c(=O)[nH]2)cc1" . Is its EC50 below 6 µg/mL?
## Output False

## Input A record lists "Cc1ccc(Cc2nnc(Nc3ccc(F)cc3)[nH]c2=O)cc1" . Is its EC50 below 6 µg/mL?
## Output True

## Input A record lists "Cc1ccc(Cc2nnc(Nc3ccccc3)[nH]c2=O)cc1" . Is its EC50 below 6 µg/mL?
## Output False

## Input A record lists "COc1ccc(OC)c(Nc2nnc(Cc3ccc(C)cc3)c(=O)[nH]2)c1" . Is its EC50 below 6 µg/mL?
## Output True

## Input A record lists "COc1ccccc1Nc1nnc(Cc2ccc(C)cc2)c(=O)[nH]1" . Is its EC50 below 6 µg/mL?
## Output True

====

# Test protocol: Selectivity index, ratio of CC50 for cytotoxicity against African green monkey Vero cells to EC50 for antiviral activity against Yellow fever virus 17D infected in African green monkey Vero assessed as reduction in cytopathic effect
# Assay type: toxicity, cell-based
# Assay context: read-out: Ratio CC50/EC50
Metric name: selectivity ratio
// no unit string in output, number only

## Input Entry under review: "Cc1ccc(Cc2nnc(Nc3cccc(C)c3)[nH]c2=O)cc1" . Reported selectivity ratio?
## Output 23

New cases:
## Input Entry under review: "COc1ccc(Nc2nnc(Cc3ccc(C)cc3)c(=O)[nH]2)c(OC)c1" . Reported selectivity ratio?
## Output 51

====

# Test protocol: Selectivity index, ratio of CC50 for cytotoxicity against human A549 cells to EC50 for antiviral activity against Yellow fever virus infected in human A549 cells assessed as reduction in virus replication
# Type: toxicity, cell-based
# Assay context: read-out: Ratio CC50/EC50
Metric name: selectivity ratio

## Input Entry under review: "O=C1OC2(c3ccccc31)c1cc(I)c(O)c(I)c1Oc1c2cc(I)c(O)c1I" . Reported selectivity ratio?
## Output > 263

====

# Tested on: Yellow fever virus
# Test protocol: Antiviral activity against Yellow fever virus 17D infected in Huh-7 cells assessed as reduction in cytopathic effect
# Type: functional, organism-based
Metric name: pEC50
Friendly reminder that pEC50 comes from taking -log10 of the concentration in mol/L.

## Input Entry under review: "CC[C@H](C)[C@@H]1N=C(c2ccccc2)c2cc(Cl)ccc2N(CC(=O)O)C1=O" . Reported pEC50?
## Output 6.68

====

# EC50 listing for each entry below
# System: Yellow fever virus
# Test protocol: Antiviral activity against Yellow fever virus 17D infected in African green monkey Vero assessed as reduction in cytopathic effect preincubated with compound for 5 mins followed by viral infection and measured at 72 to 120 hrs by neutral red uptake assay
# Format: functional, organism-based

Some entries whose results are on file:
## Input Entry under review: "COC(=O)c1ccc(Nc2nnc(Cc3ccc(C)cc3)c(=O)[nH]2)cc1" . Reported EC50?
## Output > 100 µg/mL

## Input Entry under review: "Cc1ccc(Cc2nnc(NC3CCCCC3)[nH]c2=O)cc1" . Reported EC50?
## Output 30 µg/mL

New cases:
## Input Entry under review: "COc1ccc(Nc2nnc(Cc3ccc(C(C)C)cc3)c(=O)[nH]2)cc1OC" . Reported EC50?
## Output > 38 µg/mL

## Input Entry under review: "Cc1ccc(Cc2nn3c(=O)c4ccccc4nc3[nH]c2=O)cc1" . Reported EC50?
## Output > 100 µg/mL

## Input Entry under review: "Cc1cccc(Nc2nnc(Cc3ccc(F)cc3)c(=O)[nH]2)c1C" . Reported EC50?
## Output > 100 µg/mL

## Input Entry under review: "CCOc1ccccc1Nc1nnc(Cc2ccc(C)cc2)c(=O)[nH]1" . Reported EC50?
## Output > 100 µg/mL

## Input Entry under review: "Cc1ccc(Cc2nnc(Nc3cccc(C)c3)[nH]c2=O)cc1" . Reported EC50?
## Output 0.48 µg/mL

## Input Entry under review: "CC(C)c1ccc(Cc2nnc(NCCN3CCOCC3)[nH]c2=O)cc1" . Reported EC50?
## Output > 100 µg/mL

## Input Entry under review: "Cc1ccc(Cc2nnc(Nc3cccc(F)c3)[nH]c2=O)cc1" . Reported EC50?
## Output 1 µg/mL

## Input Entry under review: "CC(=O)Nc1ccc(Nc2nnc(Cc3ccc(C)cc3)c(=O)[nH]2)cc1" . Reported EC50?
## Output > 100 µg/mL

====

# System: Yellow fever virus
# Test protocol: Antiviral activity against Yellow fever virus 17D infected in African green monkey Vero assessed as reduction in cytopathic effect preincubated with compound for 5 mins followed by viral infection and measured at 72 to 120 hrs by neutral red uptake assay
# Assay type: functional, organism-based
Metric name: EC50 (µg/mL)
Provide the reading as a plain figure in µg/mL.

## Input Entry under review: "Cc1ccc(Cc2nnc(Nc3ccccc3F)[nH]c2=O)cc1" . Reported EC50?
## Output 1

New cases:
## Input Entry under review: "COc1ccc(Nc2nnc(Cc3ccc(C)cc3)c(=O)[nH]2)c(OC)c1" . Reported EC50?
## Output 1

## Input Entry under review: "Cc1ccc(Cc2nnc(Nc3ccccc3C)[nH]c2=O)cc1" . Reported EC50?
## Output 18

## Input Entry under review: "COc1ccc(Nc2nnc(Cc3ccc(C)cc3)c(=O)[nH]2)cc1OC" . Reported EC50?
## Output 11

====

# selectivity ratio listing for each entry below
# Test protocol: Selectivity index, ratio of IC50 for cytotoxicity against African green monkey Vero cells assessed as inhibition of cell growth by neutral red uptake assay to EC50 for antiviral activity against Yellow fever virus 17D infected in African green monkey Vero assessed as reduction in cytopathic effect
# Type: toxicity, cell-based
# Assay context: read-out: Ratio IC50/EC50

## Input Entry under review: "Cc1ccc(Cc2nnc(Nc3ccccc3)[nH]c2=O)cc1" . Reported selectivity ratio?
## Output > 7.1

## Input Entry under review: "Cc1ccc(Cc2nnc(Nc3cc(C)ccc3C)[nH]c2=O)cc1" . Reported selectivity ratio?
## Output > 4.3

## Input Entry under review: "Cc1ccc(Cc2nnc(NC3CCCCC3)[nH]c2=O)cc1" . Reported selectivity ratio?
## Output > 3.3

New cases:
## Input Entry under review: "Cc1ccc(Cc2nnc(Nc3cccc(F)c3)[nH]c2=O)cc1" . Reported selectivity ratio?
## Output > 14

## Input Entry under review: "Cc1ccc(Cc2nnc(Nc3ccccc3C)[nH]c2=O)cc1" . Reported selectivity ratio?
## Output > 5.6

## Input Entry under review: "Cc1ccc(Cc2nnc(Nc3ccccc3F)[nH]c2=O)cc1" . Reported selectivity ratio?
## Output > 19

## Input Entry under review: "COc1ccccc1Nc1nnc(Cc2ccc(C)cc2)c(=O)[nH]1" . Reported selectivity ratio?
## Output > 31

## Input Entry under review: "Cc1ccc(Cc2nnc(Nc3cccc(C)c3)[nH]c2=O)cc1" . Reported selectivity ratio?
## Output > 29

## Input Entry under review: "Cc1ccc(Cc2nnc(Nc3ccc(F)cc3)[nH]c2=O)cc1" . Reported selectivity ratio?
## Output > 14

## Input Entry under review: "COc1ccc(Nc2nnc(Cc3ccc(C)cc3)c(=O)[nH]2)cc1OC" . Reported selectivity ratio?
## Output 1.6

## Input Entry under review: "COc1ccc(OC)c(Nc2nnc(Cc3ccc(C)cc3)c(=O)[nH]2)c1" . Reported selectivity ratio?
## Output 5.5

## Input Entry under review: "COc1ccc(Nc2nnc(Cc3ccc(C)cc3)c(=O)[nH]2)c(OC)c1" . Reported selectivity ratio?
## Output > 17
